Hello, the source for this data is paper PMC3336205, in case you need it.

ASSAYED_TARGET: T1, recombinant PfMSP1_(19)-GST (Plasmodium falciparum, strain not …, UniProt P04933)
T1 construct: merozoite surface protein 1 (MSP1), Plasmodium falciparum, C-terminal 19-kDa region (MSP1_19); also called C-terminal 19-kDa region of Plasmodium falciparum merozoite surface protein 1; source: recombinant, purified (Burghaus and Holder, 1994)
PROCEDURE_DETAILS: SPR; BIAcore X; PfMSP1_19-GST (50 μg/ml) amine-coupled to a CM5 chip; purified IgGs injected at 2, 1, 0.5, 0.25 and 0.125 μM, 50 μL at 10 μL/min; control Ag in flow cell 2
TEST_PARAMETERS: both partners purified
MEASUREMENT_LABEL: Ka (M⁻¹)
Numeric answer only, unit M⁻¹ assumed.

Quick note, Ka for mouse IgG1-C1 (PfMSP1_(19)-specific recombinant mouse IgG1) (antibody, V domains shown, VH of C1 (anti-PfMSP1_19), as the VH of m7; mouse IgG1 heavy-chain constant region, amplified from BALB/c genomic DNA; VL of C1, as the VL of m7; mouse kappa light chain constant region, amplified from BALB/c genomic DNA; Plasmids pVH-C1-mIgG1 and pVL-C1-mouse kappa; also called mIgG1-C1; murine IgG1-C1; source: HEK-293T, stably transfected; culture supernatant, and purified (protein G-Sepharose)) VH: EVQLVQSGPEVKKPGASVKVSCKTSGYSFTSYDINWVRQAPGQGLEWMGRISPYNGKTDYTQTLRGRVTMSTDTSTTTVYLELRSLKSDDTAVYYCAREGVWFAELLSWGEGTLVTVSS VL: DIVMTQTPGTLSLSPGERATLSCRASQSVSGNYLAWYQQKPGQAPRLLIHGSSDRAAGTPDRFSGRGSGTDFTLTISRLEPEDFAVYYCQQYCSSPFTFGPGTKVEIK landed at 4.48e+07

According to the records, this binder mouse IgG2b-C1 (PfMSP1_(19)-specific recombinant mouse IgG2b) (antibody, V domains shown, VH of C1 (anti-PfMSP1_19), as the VH of m7; mouse IgG2b heavy-chain constant region, amplified from genomic DNA; VL of C1, as the VL of m7; mouse kappa light chain constant region, amplified from BALB/c genomic DNA; Plasmids pVH-C1-mIgG2b and pVL-C1-mouse kappa; also called mIgG2b-C1; source: CHO-K1, stably transfected; culture supernatant, and purified (protein G-Sepharose)) VH: EVQLVQSGPEVKKPGASVKVSCKTSGYSFTSYDINWVRQAPGQGLEWMGRISPYNGKTDYTQTLRGRVTMSTDTSTTTVYLELRSLKSDDTAVYYCAREGVWFAELLSWGEGTLVTVSS VL: DIVMTQTPGTLSLSPGERATLSCRASQSVSGNYLAWYQQKPGQAPRLLIHGSSDRAAGTPDRFSGRGSGTDFTLTISRLEPEDFAVYYCQQYCSSPFTFGPGTKVEIK displays Ka of 1.2e+07

Ka reading for mouse IgG3-C1 (PfMSP1_(19)-specific recombinant mouse IgG3) (antibody, V domains shown, VH of C1 (anti-PfMSP1_19), as the VH of m7; mouse IgG3 heavy-chain constant region, amplified from genomic DNA; VL of C1, as the VL of m7; mouse kappa light chain constant region, amplified from BALB/c genomic DNA; Plasmids pVH-C1-mIgG3 and pVL-C1-mouse kappa; also called mIgG3-C1; source: CHO-K1, stably transfected; culture supernatant, and purified (protein G-Sepharose)) VH: EVQLVQSGPEVKKPGASVKVSCKTSGYSFTSYDINWVRQAPGQGLEWMGRISPYNGKTDYTQTLRGRVTMSTDTSTTTVYLELRSLKSDDTAVYYCAREGVWFAELLSWGEGTLVTVSS VL: DIVMTQTPGTLSLSPGERATLSCRASQSVSGNYLAWYQQKPGQAPRLLIHGSSDRAAGTPDRFSGRGSGTDFTLTISRLEPEDFAVYYCQQYCSSPFTFGPGTKVEIK : 2.33e+07
